Test system: Cos 1 cells
Type: cell-based, African Green Monkey
Where a SMILES comes first, the peptide text is derived from it. The star is where a group is joined. NHC(CH2O-Palmitoyl)3 = CCCCCCCCCCCCCCCC(=O)OCC(COC(=O)CCCCCCCCCCCCCCC)(COC(=O)CCCCCCCCCCCCCCC)N*; NHC(CH2OLauroyl)3 = CCCCCCCCCCCC(=O)OCC(COC(=O)CCCCCCCCCCC)(COC(=O)CCCCCCCCCCC)N*; X4 = CCCCCCCCCCCC(=O)OCC(CO)(COC(=O)CCCCCCCCCCC)N*; X1 = CCCCCCCCCCCCCCCC(=O)OCC(CO)(CO)N*
Metric name: Viability (Cos 1)
Kindly provide the number alone.

Query string: Data request, read-out Viability (Cos 1), for CCCCCCCCCCCCCCCC(=O)OCC(CO)(CO)NC(=O)[C@H](C)NC(=O)[C@H](CCCCN)NC(=O)[C@H](CCCCN)NC(=O)[C@@H](N)CCCCN [K3ATP1, trilysine alanine tris monopalmitate] (H-KKKA-X1)
Result string: 1.34

Query string: Please look up its Viability (Cos 1): `CCCCCCCCCCCCCC(=O)OCC(CO)(COC(=O)CCCCCCCCCCCCC)NC(=O)[C@H](C)NC(=O)[C@H](CCCCN)NC(=O)[C@H](CCCCN)NC(=O)[C@@H](N)CCCCN`
Result string: 1.56

Query string: Look up Viability (Cos 1): `CCCCCCCCCCCCCC(=O)OCC(COC(=O)CCCCCCCCCCCCC)(COC(=O)CCCCCCCCCCCCC)NC(=O)[C@H](C)NC(=O)[C@H](CCCCN)NC(=O)[C@H](CCCCN)NC(=O)[C@@H](N)CCCCN`
Result string: 1.22

Query string: Report Viability (Cos 1) for CCCCCCCCCCCC(=O)OCC(CO)(COC(=O)CCCCCCCCCCC)NC(=O)[C@H](C)NC(=O)[C@H](CCCCN)NC(=O)[C@H](CCCCN)NC(=O)[C@@H](N)CCCCN [K3ATL2] (H-KKKA-X4) please.
Result string: 1.55

Query string: # lookup: Viability (Cos 1) of CCCCCCCCCCCC(=O)OCC(COC(=O)CCCCCCCCCCC)(COC(=O)CCCCCCCCCCC)NC(=O)[C@H](C)NC(=O)[C@H](CCCCN)NC(=O)[C@H](CCCCN)NC(=O)[C@@H](N)CCCCN [K3ATL3] (H-KKKA-{NHC(CH2OLauroyl)3})
Result string: 1.36

Query string: Recorded Viability (Cos 1) of CCCCCCCCCCCCCCCC(=O)OCC(COC(=O)CCCCCCCCCCCCCCC)(COC(=O)CCCCCCCCCCCCCCC)NC(=O)[C@H](C)NC(=O)[C@H](CCCCN)NC(=O)[C@H](CCCCN)NC(=O)[C@@H](N)CCCCN [K3ATP3, trilysine alanine tris tripalmitate] (H-KKKA-{NHC(CH2O-Palmitoyl)3}) , please.
Result string: 1.24
